Listed compounds paired with reported pKi
- Target System: cloned human D4 receptors (Homo sapiens)
- Sequence (P21917 whole entry): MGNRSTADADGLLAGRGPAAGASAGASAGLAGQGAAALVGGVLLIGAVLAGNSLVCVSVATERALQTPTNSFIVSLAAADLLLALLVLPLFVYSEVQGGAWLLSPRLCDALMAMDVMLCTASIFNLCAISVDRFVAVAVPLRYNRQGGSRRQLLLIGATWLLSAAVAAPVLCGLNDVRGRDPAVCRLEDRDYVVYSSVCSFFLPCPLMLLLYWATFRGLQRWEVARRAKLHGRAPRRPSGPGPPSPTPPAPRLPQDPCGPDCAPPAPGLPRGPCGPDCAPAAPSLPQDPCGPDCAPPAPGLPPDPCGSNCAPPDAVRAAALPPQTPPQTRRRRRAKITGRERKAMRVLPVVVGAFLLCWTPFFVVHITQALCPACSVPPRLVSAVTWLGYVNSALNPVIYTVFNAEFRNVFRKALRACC
pKi: −log10 of the molar value.
Value Kind: pKi

CCC1(CCCCN2CCN(c3ccc(Cl)cc3)CC2)C(=O)Nc2c(Cl)cc(Cl)cc21 (single isomer, unassigned; (-)) [(−)-enantiomer of the Formula (I)]: 7.89
CCC1(CCCCN2CCN(c3ccc(Cl)cc3)CC2)C(=O)Nc2c(Cl)cc(Cl)cc21 (single isomer, unassigned; (+)) [(+)-enantiomer of the Formula (I)]: 7.46

###

- Target System: UniProt P14842
- Sequence (P14842 whole entry): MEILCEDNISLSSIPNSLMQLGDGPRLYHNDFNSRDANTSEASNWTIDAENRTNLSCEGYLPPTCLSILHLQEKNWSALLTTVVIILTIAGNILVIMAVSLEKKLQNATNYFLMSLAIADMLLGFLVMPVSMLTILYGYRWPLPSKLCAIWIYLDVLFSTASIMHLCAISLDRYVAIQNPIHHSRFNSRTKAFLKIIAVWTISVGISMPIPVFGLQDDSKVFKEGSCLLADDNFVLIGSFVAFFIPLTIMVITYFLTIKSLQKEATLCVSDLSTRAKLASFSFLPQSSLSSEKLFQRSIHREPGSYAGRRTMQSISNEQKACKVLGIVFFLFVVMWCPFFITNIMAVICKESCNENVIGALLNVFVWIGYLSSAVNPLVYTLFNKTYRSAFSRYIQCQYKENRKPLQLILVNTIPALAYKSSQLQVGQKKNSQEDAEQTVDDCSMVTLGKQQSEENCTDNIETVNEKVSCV
Value Kind: Ki (nM)

CCC1(CCCCN2CCN(c3ccc(Cl)cc3)CC2)C(=O)Nc2c(Cl)cc(Cl)cc21 (single isomer, unassigned; (-)) [(−)-enantiomer of the Formula (I)]: 42
CCC1(CCCCN2CCN(c3ccc(Cl)cc3)CC2)C(=O)Nc2c(Cl)cc(Cl)cc21 (racemic) [Compound of the Formula (II)]: 50
